- tested on: human MC1R (Homo sapiens)
- Sequence (Q01726 whole entry): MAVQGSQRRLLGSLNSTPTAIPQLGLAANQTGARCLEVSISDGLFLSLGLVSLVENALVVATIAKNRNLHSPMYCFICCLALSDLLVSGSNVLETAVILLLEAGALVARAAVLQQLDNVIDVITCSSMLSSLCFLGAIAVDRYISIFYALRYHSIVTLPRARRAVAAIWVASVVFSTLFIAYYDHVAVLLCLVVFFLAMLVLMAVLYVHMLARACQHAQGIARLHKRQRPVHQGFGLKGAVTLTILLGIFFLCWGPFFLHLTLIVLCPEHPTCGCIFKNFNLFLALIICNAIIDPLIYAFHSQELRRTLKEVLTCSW
- experimental details: Eu-NDP-MSH displacement binding assay, MC1R
Bridges are numbered along the chain shown (N, C = ends).
readout: pKi
Field pKi (float): negative decimal logarithm of the concentration in molar.

**Q:** Specify pKi for Ac-KKVVRPRTPLSAPCVATRNSCKPPAPACCDPCASCYCRFFNAFCYCRVLSLNC-NH2 (disulfide 14-29, 21-35, 28-46, 32-53, 37-44) [chi(+1 −1 +1)] and stop.
**A:** 8.31

====

- tested on: human MC4R (Homo sapiens, UniProt P32245)
- Sequence (P32245 whole entry): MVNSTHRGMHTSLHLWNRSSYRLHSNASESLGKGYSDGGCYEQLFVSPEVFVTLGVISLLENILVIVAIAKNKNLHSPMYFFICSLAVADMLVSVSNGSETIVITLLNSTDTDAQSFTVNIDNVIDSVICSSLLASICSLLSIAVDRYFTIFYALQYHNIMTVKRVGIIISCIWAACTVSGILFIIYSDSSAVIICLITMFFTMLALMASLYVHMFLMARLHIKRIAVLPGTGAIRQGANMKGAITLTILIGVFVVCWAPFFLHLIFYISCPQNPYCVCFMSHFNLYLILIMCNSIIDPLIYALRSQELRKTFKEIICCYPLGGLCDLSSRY
- experimental details: Eu-NDP-MSH displacement binding assay, MC4R
Bridges are numbered along the chain shown (N, C = ends).
readout: pKi
Field pKi (float): negative decimal logarithm of the concentration in molar.

**Q:** State recorded pKi with human MC4R (Homo sapiens, UniProt P32245), entry Ac-KKVVRPRTPLSAPCVATRNSCKPPAPACCDPCASCYCRFFNAFCYCRVLSLNC-NH2 (disulfide 14-29, 21-35, 28-46, 32-53, 37-44) [chi(+1 −1 +1)] , no comment.
**A:** 8.68

Values from paper PMC2972358
